system: HIV-1 Y188L; experiment: microbe, parasite or virus in culture; type: cell-based, human immunodeficiency virus type 1 (HIV-1); details: Human immunodeficiency virus 1, read-out: EC50 Y188L (nM)
measured_attribute: EC50

- smiles_record: "Cc1cc(C)c(Oc2nc(Nc3ccc(C#N)cc3)nc3ccn(C)c23)c(C)c1"
  measured_attribute: "EC50"
  value_observed: "< 10 nM"
- smiles_record: "Cc1cc(C)c(Oc2nc(Nc3ccc(S(N)(=O)=O)cc3)nc3[nH]cnc23)c(C)c1"
  measured_attribute: "EC50"
  value_observed: "> 100 nM"
- smiles_record: "CC(=O)c1cc(C)c(Oc2nc(Nc3ccc(C#N)cc3)nc3c(Cl)c[nH]c23)c(C)c1"
  measured_attribute: "EC50"
  value_observed: "10 to 100 nM"
- smiles_record: "Cc1cccc(C)c1Oc1nc(Nc2ccc(C#N)cc2)nc2cc[nH]c12"
  measured_attribute: "EC50"
  value_observed: "< 10 nM"
- smiles_record: "Cc1cc(C#N)cc(C)c1Oc1nc(Nc2ccc(C#N)cc2)nc2c(Cl)cn(C)c12"
  measured_attribute: "EC50"
  value_observed: "< 10 nM"

[in] I am curious: what EC50 value has been reported for CCCc1nn(C)c2c(Oc3c(C)cc(C)cc3C)nc(Nc3ccc(C#N)cc3)nc12 ?
[out] > 100 nM

[in] I am curious: what EC50 value has been reported for Cc1cc(C#N)cc(C)c1Oc1nc(Nc2ccc(C#N)cc2)nc2c(Cl)cn(Cc3ccccc3)c12 ?
[out] 10 to 100 nM

[in] I am curious: what EC50 value has been reported for Cc1cc(Cl)cc(C)c1Oc1nc(Nc2ccc(C#N)cc2)nc2cc[nH]c12 ?
[out] < 10 nM

====

Documented EC50 across a set of molecules
tested on: HIV-1 Y181C; test: microbe, parasite or virus in culture; format: cell-based, human immunodeficiency virus type 1 (HIV-1); conditions: Human immunodeficiency virus 1, read-out: EC50 Y181C (nM), Y181C mutant

- smiles_record: "Cc1cc(C)c(Oc2nc(Nc3ccc(C#N)cc3)nc3[nH]cc(Cl)c23)c(C)c1"
  assayed_target: "HIV-1 Y181C"
  EC50: "> 100 nM"

[in] I am curious: what EC50 value has been reported for Cc1cc(C)c(Sc2nc(Nc3ccc(C#N)cc3)nc3ccn(Cc4ccccc4)c23)c(C)c1 ?
[out] 10 to 100 nM

[in] I am curious: what EC50 value has been reported for Cc1cc(C2CC2)cc(C)c1Oc1nc(Nc2ccc(C#N)cc2)nc2ccn(Cc3ccccc3)c12 ?
[out] 10 to 100 nM

====

tested on: HIV-1 L1001-K103N; test: microbe, parasite or virus in culture; assay type: cell-based, human immunodeficiency virus type 1 (HIV-1); details: Human immunodeficiency virus 1, read-out: EC50 L1001-K103N (nM), L1001-K103N mutant
Documented EC50 across a set of compounds

Previously resolved entries follow.
- smiles_record: "Cc1cc(C#N)cc(C)c1Oc1nc(Nc2ccc(C#N)cc2)nc2[nH]ccc12"
  value_observed: "< 10 nM"
- smiles_record: "N#Cc1ccc(Nc2nc(Oc3ccc(Cl)c4ccccc34)c3nc[nH]c3n2)cc1"
  value_observed: "> 100 nM"
- smiles_record: "Cc1cc(C#N)cc(C)c1Oc1nc(Nc2ccc(C#N)cc2)nc2c(Br)cn(C)c12"
  value_observed: "< 10 nM"

[in] I am curious: what EC50 value has been reported for N#Cc1ccc(Nc2nc(Nc3ccc4c(c3)CCC4)c3nc[nH]c3n2)cc1 ?
[out] > 100 nM

[in] I am curious: what EC50 value has been reported for Cc1cc(C#N)cc(C)c1Oc1nc(Nc2ccc(C#N)cc2)nc2[nH]ncc12 ?
[out] 10 to 100 nM

[in] I am curious: what EC50 value has been reported for Cc1cc(Cl)cc(C)c1Oc1nc(Nc2ccc(C#N)cc2)nc2ccn(Cc3ccccc3)c12 ?
[out] > 100 nM

====

test system: HIV-1 Y188L; assay: microbe, parasite or virus in culture; assay type: cell-based, human immunodeficiency virus type 1 (HIV-1); conditions: Human immunodeficiency virus 1, read-out: EC50 Y188L (nM)
measured_attribute: EC50

- smiles_record: "Cc1cc(C)c(Sc2nc(Nc3ccc(C#N)cc3)nc3[nH]ccc23)c(C)c1"
  EC50: "10 to 100 nM"
- smiles_record: "Cc1cc(C2CC2)cc(Cl)c1Nc1nc(Nc2ccc(C#N)cc2)nc2[nH]cnc12"
  EC50: "10 to 100 nM"
- smiles_record: "Cc1cc(C2CC2)cc(C)c1Oc1nc(Nc2ccc(C#N)cc2)nc2ccn(Cc3ccccc3)c12"
  EC50: "> 100 nM"
- smiles_record: "Cc1cc(Cl)cc(C)c1Oc1nc(Nc2ccc(C#N)cc2)nc2c(Cl)cn(C)c12"
  EC50: "< 10 nM"
- smiles_record: "Cc1cc(C2CC2)cc(C)c1Oc1nc(Nc2ccc(C#N)cc2)nc2[nH]cnc12"
  EC50: "< 10 nM"

[in] Give EC50 (HIV-1 Y188L) of the following compound: N#Cc1ccc(Nc2nc(Nc3ccc(C4CC4)c4ccccc34)c3nc[nH]c3n2)cc1
[out] > 100 nM

[in] Give EC50 (HIV-1 Y188L) of the following compound: Cc1ccc(Oc2nc(Nc3ccc(C#N)cc3)nc3[nH]ccc23)c(C)c1
[out] > 100 nM

[in] Give EC50 (HIV-1 Y188L) of the following compound: Cc1cc(C)c(Oc2nc(Nc3ccc(C#N)cc3)nc3c2ncn3C)c(C)c1
[out] < 10 nM

[in] Give EC50 (HIV-1 Y188L) of the following compound: Cc1cc(C2CC2)cc(C)c1Nc1nc(Nc2ccc(C#N)cc2)nc2[nH]cnc12
[out] 10 to 100 nM

[in] Give EC50 (HIV-1 Y188L) of the following compound: N#Cc1ccc(Nc2nc(Oc3ccc(Cl)c4ccccc34)c3nc[nH]c3n2)cc1
[out] 10 to 100 nM

[in] Give EC50 (HIV-1 Y188L) of the following compound: COc1ccc(Nc2nc(Oc3c(C)cc(C)cc3C)c3nc[nH]c3n2)cc1
[out] > 100 nM

[in] Give EC50 (HIV-1 Y188L) of the following compound: Cc1cc(Br)cc(Cl)c1Oc1nc(Nc2ccc(C#N)cc2)nc2[nH]ccc12
[out] 10 to 100 nM

====

tested on: HIV-1 L1001-K103N; test: microbe, parasite or virus in culture; assay type: cell-based, human immunodeficiency virus type 1 (HIV-1); conditions: Human immunodeficiency virus 1, read-out: EC50 L1001-K103N (nM), L1001-K103N mutant
Documented EC50 across a set of molecules

- molecule: "Cc1cc(C#N)cc(C)c1Oc1nc(Nc2ccc(C#N)cc2)nc2c(Cl)cn(Cc3ccccc3)c12 [Cpd 56]"
  EC50: "10 to 100 nM"

[in] I am curious: what EC50 value has been reported for Cc1cc(C)c(Oc2nc(Nc3ccc(C#N)c(C(F)(F)F)c3)nc3[nH]cnc23)c(C)c1 [Cpd 40] ?
[out] 10 to 100 nM

[in] I am curious: what EC50 value has been reported for Cc1cc(C2CC2)cc(C)c1Oc1nc(Nc2ccc(C#N)cc2)nc2cc[nH]c12 [Cpd 52] ?
[out] < 10 nM

[in] I am curious: what EC50 value has been reported for Cc1cc(C)c(Sc2nc(Nc3ccc(C#N)cc3)nc3ccn(Cc4ccccc4)c23)c(C)c1 [Cpd 48] ?
[out] > 100 nM

[in] I am curious: what EC50 value has been reported for Cc1cc(C#N)cc(C)c1Oc1nc(Nc2ccc(C#N)cc2)nc2c(Cl)c[nH]c12 [Cpd 49] ?
[out] < 10 nM

[in] I am curious: what EC50 value has been reported for Cc1cc(Cl)cc(C)c1Oc1nc(Nc2ccc(C#N)cc2)nc2[nH]ccc12 [Cpd 11] ?
[out] 10 to 100 nM

[in] I am curious: what EC50 value has been reported for Cc1cc(C)c(Sc2nc(Nc3ccc(C#N)cc3)nc3cc[nH]c23)c(C)c1 [Cpd 51] ?
[out] 10 to 100 nM

[in] I am curious: what EC50 value has been reported for Cc1cc(Br)cc(C)c1Oc1nc(Nc2ccc(C#N)cc2)nc2[nH]ccc12 [Cpd 6] ?
[out] 10 to 100 nM

[in] I am curious: what EC50 value has been reported for CCCc1nn(C)c2c(Oc3c(C)cc(C)cc3C)nc(Nc3ccc(C#N)cc3)nc12 [Cpd 43] ?
[out] 10 to 100 nM

[in] I am curious: what EC50 value has been reported for Cc1cc(Br)cc(Cl)c1Oc1nc(Nc2ccc(C#N)cc2)nc2c1ccn2Cc1ccccc1 [Cpd 8] ?
[out] > 100 nM

[in] I am curious: what EC50 value has been reported for Cc1cc(C2CC2)cc(Cl)c1Nc1nc(Nc2ccc(C#N)cc2)nc2[nH]cnc12 [Cpd 27] ?
[out] 10 to 100 nM

[in] I am curious: what EC50 value has been reported for CCN(c1ccc(C#N)cc1)c1nc(Oc2c(C)cc(C#N)cc2C)c2c(ccn2CC)n1 [Cpd 46] ?
[out] > 100 nM

[in] I am curious: what EC50 value has been reported for Cc1cc(C)c(Oc2nc(Nc3ccc(C(=O)O)cc3)nc3[nH]cnc23)c(C)c1 [Cpd 16] ?
[out] > 100 nM

[in] I am curious: what EC50 value has been reported for Cc1cc(C#N)cc(C)c1Oc1nc(Nc2ccc(C#N)cc2)nc2ccn(Cc3ccccc3)c12 [Cpd 41] ?
[out] 10 to 100 nM
